# Tested on: 521955-158-R7-J2-PDC spheroids, viability % test/control
# RUN DESCRIPTION: Anticancer human tumor 521955-158-R7-J2-PDC patient-derived pancreatic carcinoma cell line growth inhibition [TAK]
# CONDITION INFO: compound alone; run of 02/20/2020; spheroids with HUVEC and MSC
RECORDED METRIC: IC50

Lab note: CC(C)NCC(C(=O)N1CCN(c2ncnc3c2C(C)CC3O)CC1)c1ccc(Cl)cc1 (stereo unspecified) gave IC50 of > 30 µM

----------
Measured viability, T/C of individual entries
# System: 521955-158-R7-J2-PDC spheroids, viability % test/control
# RUN DESCRIPTION: Anticancer human tumor 521955-158-R7-J2-PDC cell line growth inhibition [TAK];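 further: spheroids exposed to compound for 7 days before readout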;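 on viability, T/C: 100% = DMSO vehicle control wells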
# CONDITION INFO: second compound 0.3 µM; first compound 0.01 µM; stronger effect = lower value; spheroids with HUVEC and MSC
Just the number in %, nothing appended.

Answered examples (4):
COMPOUND | ASSAYED SYSTEM | viability, T/C [%]
CC(C)CC(NC(=O)CNC(=O)c1cc(Cl)ccc1Cl)B1OC(=O)CC(CC(=O)O)(C(=O)O)O1 (stereo not given) + CC(C)NCC(C(=O)N1CCN(c2ncnc3c2C(C)CC3O)CC1)c1ccc(Cl)cc1 | 521955-158-R7-J2-PDC spheroids, viability % test/control | 104
COC1CC2CCC(C)C(O)(O2)C(=O)C(=O)N2CCCCC2C(=O)OC(C(C)CC2CCC(OCCO)C(OC)C2)CC(=O)C(C)C=C(C)C(O)C(OC)C(=O)C(C)CC(C)C=CC=CC=C1C (stereo not given) + CC(C)NCC(C(=O)N1CCN(c2ncnc3c2C(C)CC3O)CC1)c1ccc(Cl)cc1 | 521955-158-R7-J2-PDC spheroids, viability % test/control | 102
CC(C)n1nc(-c2ccc3oc(N)nc3c2)c2c(N)ncnc21 + CC(C)NCC(C(=O)N1CCN(c2ncnc3c2C(C)CC3O)CC1)c1ccc(Cl)cc1 | 521955-158-R7-J2-PDC spheroids, viability % test/control | 134
CC(C)CC(NC(=O)C(Cc1ccccc1)NC(=O)c1cnccn1)B(O)O (stereo not given) + CC(C)NCC(C(=O)N1CCN(c2ncnc3c2C(C)CC3O)CC1)c1ccc(Cl)cc1 | 521955-158-R7-J2-PDC spheroids, viability % test/control | 6.67

Value sought: viability, T/C, system 521955-158-R7-J2-PDC spheroids, viability % test/control, item COc1c(OCCCN2CCOCC2)ccc2c3n(c(=NC(=O)c4cnc(N)nc4)nc12)CCN3 + CC(C)NCC(C(=O)N1CCN(c2ncnc3c2C(C)CC3O)CC1)c1ccc(Cl)cc1 . Result: 67.6

----------
# Test system: 521955-158-R7-J2-PDC spheroids, viability % test/control
# RUN DESCRIPTION: Anticancer human tumor 521955-158-R7-J2-PDC cell line growth inhibition [TAK]; active means viability on the fitted dose curve at most 10% of control; inactive means the rest;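 further: spheroids exposed to compound for 7 days before readout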
# CONDITION INFO: second compound 30 µM; first compound 0.01 µM; spheroids with HUVEC and MSC
Returns: one label drawn from active, inactive

Examples from the recorded data:
COMPOUND | LABEL VALUE
COc1c(OCCCN2CCOCC2)ccc2c3n(c(=NC(=O)c4cnc(N)nc4)nc12)CCN3 + CC(C)NCC(C(=O)N1CCN(c2ncnc3c2C(C)CC3O)CC1)c1ccc(Cl)cc1 | inactive
CC(C)CC(NC(=O)C(Cc1ccccc1)NC(=O)c1cnccn1)B(O)O (stereo not given) + CC(C)NCC(C(=O)N1CCN(c2ncnc3c2C(C)CC3O)CC1)c1ccc(Cl)cc1 | active
CC(C)n1nc(-c2ccc3oc(N)nc3c2)c2c(N)ncnc21 + CC(C)NCC(C(=O)N1CCN(c2ncnc3c2C(C)CC3O)CC1)c1ccc(Cl)cc1 | inactive
COC1CC2CCC(C)C(O)(O2)C(=O)C(=O)N2CCCCC2C(=O)OC(C(C)CC2CCC(OCCO)C(OC)C2)CC(=O)C(C)C=C(C)C(O)C(OC)C(=O)C(C)CC(C)C=CC=CC=C1C (stereo not given) + CC(C)NCC(C(=O)N1CCN(c2ncnc3c2C(C)CC3O)CC1)c1ccc(Cl)cc1 | inactive

# evaluate next
What outcome does the record of this test show for CC(C)CC(NC(=O)CNC(=O)c1cc(Cl)ccc1Cl)B1OC(=O)CC(CC(=O)O)(C(=O)O)O1 (stereo not given) + CC(C)NCC(C(=O)N1CCN(c2ncnc3c2C(C)CC3O)CC1)c1ccc(Cl)cc1 ? inactive
